I'd be grateful if you could share measured λmax Absorp. for these entries.
- Assay Remarks: Absorbance and fluorescence emission spectra (SpectraMax M2)
- Assay type: physicochemical
- Test Context: BDCAC library, Table 3
The response must be a number in nm with no trailing unit.

[ask] Dear colleague, I am looking for the recorded λmax Absorp. of the following compound: CC(=O)Nc1ccc(C2=C3C=CC(N4CCCCC4)=[N+]3[B-](F)(F)n3c2ccc3-n2cc(CC3CCCCC3)nn2)cc1
[reply] 468

[ask] Similarly, CC(=O)Nc1ccc(C2=C3C=CC(N4CCCCC4)=[N+]3[B-](F)(F)n3c2ccc3-n2cc(-c3ccccc3)nn2)cc1 ?
[reply] 465

[ask] Similarly, CC(=O)Nc1ccc(C2=C3C=CC(N4CCCCC4)=[N+]3[B-](F)(F)n3c2ccc3-n2cc(C(C)(C)C)nn2)cc1 ?
[reply] 469

[ask] Similarly, CCCCc1cn(-c2ccc3n2[B-](F)(F)[N+]2=C(N4CCCCC4)C=CC2=C3c2ccc(NC(C)=O)cc2)nn1 ?
[reply] 467
